test system: Staphylococcus aureus; assay: Antibacterial activity against methicillin-resistant Staphylococcus aureus ATCC USA300 incubated for 16 to 20 hrs by CLSI based broth microdilution method; format: functional; conditions: time 16-20 hrs
Listed below: MIC values for each entry.

# Line Notation, MIC [µg/mL]
rows = [
    ("CC(C)C[C@@H]1NC(=O)[C@H](CCCN)NC(=O)[C@H](C(C)C)NC(=O)[C@@H]2CCCN2C(=O)[C@@H](Cc2ccccc2)NC(=O)[C@H](CC(C)C)NC(=O)[C@H](CCCNC(=N)N)NC(=O)[C@H](C(C)C)NC(=O)[C@@H]2CCCN2C(=O)[C@@H](Cc2ccccc2)NC1=O", 8),
    ("CC(C)C[C@@H]1NC(=O)[C@H](CCCNC(=N)N)NC(=O)[C@H](C(C)C)NC(=O)[C@@H]2CCCN2C(=O)[C@@H](Cc2c[nH]cn2)NC(=O)[C@H](CC(C)C)NC(=O)[C@H](CCCN)NC(=O)[C@H](C(C)C)NC(=O)[C@@H]2CCCN2C(=O)[C@@H](Cc2ccccc2)NC1=O", 16),
    ("CC(C)C[C@@H]1NC(=O)[C@H](CCCNC(=N)N)NC(=O)[C@H](C(C)C)NC(=O)[C@@H]2CCCN2C(=O)[C@@H](Cc2ccccc2)NC(=O)[C@H](CC(C)C)NC(=O)[C@H](CCCNC(=N)N)NC(=O)[C@H](C(C)C)NC(=O)[C@@H]2CCCN2C(=O)[C@@H](Cc2ccccc2)NC1=O", 8),
    ("CC(C)C[C@@H]1NC(=O)[C@H](CCCN)NC(=O)[C@H](C(C)C)NC(=O)[C@@H]2CCCN2C(=O)[C@@H](CCCNC(=N)N)NC(=O)[C@H](CC(C)C)NC(=O)[C@H](CCCN)NC(=O)[C@H](C(C)C)NC(=O)[C@@H]2CCCN2C(=O)[C@@H](CCCNC(=N)N)NC1=O", 32),
]

Entry source: ChEMBL document CHEMBL5500408
